Quick reference for inhibition in vivo at 10 mg/kg among some compounds
- Test system: Rattus norvegicus
- experimental-protocol: Antianxiety activity in Long-Evens rat assessed as decrease in motor activity at 10 mg/kg, po by tranquilizer activity test
- Format: functional
Give your result in % as a bare value.

Known inhibition in vivo at 10 mg/kg results, listed for orientation:
# compound, tested-on, inhibition in vivo at 10 mg/kg, %
records = [
    ("C#CCN1CCC2=C(C1)c1c(O)cc(C(C)CCCc3ccc(F)cc3)cc1OC2(C)C (stereo unspecified)", "Rattus norvegicus", 57),
    ("CCCCCc1cc(O)c2c(c1)OC(C)(C)[C@@H]1CCC(C)=C[C@@H]21", "Rattus norvegicus", 39),
    ("CCCCCC(C)C(C)c1cc(OC)c2c(c1)OC(C)(C)c1ccncc1-2 (stereo unspecified)", "Rattus norvegicus", 37),
    ("C#CCN1CCC2=C(C1)c1c(O)cc(C(C)C(C)CCCCC)cc1OC2(C)C (stereo unspecified)", "Rattus norvegicus", 51),
    ("CCCCCC(C)C(C)c1cc(OC(=O)CCCN2CCCCC2)c2c(c1)OC(C)(C)c1ccncc1-2.Cl (stereo unspecified)", "Rattus norvegicus", 63),
]

Let's switch to this compound now.
Give reported inhibition in vivo at 10 mg/kg value for CCCCCC(C)C(C)c1cc(O)c2c(c1)OC(C)(C)c1cc[n+]([O-])cc1-2 (stereo unspecified)
40

Values were extracted from ChEMBL document CHEMBL3272288.
